Tested on: HOP-62 (Lung)
Assay: NCI Developmental Therapeutics antiproliferative assay, HOP-62
Assay type: cell-based, human
Conditions: Homo sapiens; HOP-62; 50% growth inhibition; read-out: Cytotoxicity (GI50) Lung HOP-62
Binary call on GI50 with cut-off 5 µM: strictly below means condition met, and equality or higher means condition not met.

Illustrative cases are given below, each with its answer.
| molecule | classification |
| --- | --- |
| O=C1c2ccccc2-c2c1c1ccc([N+](=O)[O-])cc1c(=O)n2C[C@H](O)[C@@H](O)[C@H](O)[C@H](O)CO | condition not met |
| O=C1c2ccccc2-c2c1c1ccccc1c(=O)n2CC(O)CO (racemic) [Compound 12c] | condition not met |

I wonder whether O=C(CO)Cn1c2c(c3ccccc3c1=O)C(=O)c1ccccc1-2 has GI50 below 5 µM. Can you tell?
condition not met

For this molecule, is GI50 lower than 5 µM? O=C1c2ccccc2-c2c1c1ccccc1c(=O)n2C[C@@H](O)CO [Compound 12b]
condition met

---

System: OVCAR-3 (Ovarian)
Assay: NCI Developmental Therapeutics antiproliferative assay, OVCAR-3
Format: cell-based, human
Listed here are compounds together with their documented GI50.
Give just the number in µM; leave the unit off.

| compound | systemUnderTest | GI50 (µM) |
| --- | --- | --- |
| C[C@H](O)Cn1c2c(c3ccccc3c1=O)C(=O)c1ccccc1-2 [Compound 27c] | OVCAR-3 (Ovarian) | 16.2 |

Returns the measured GI50 for the input compound. Input: COc1cc2c3c(n(C[C@H](O)CO)c(=O)c2cc1OC)-c1ccccc1C3=O [Compound 29]
0.287

Find the recorded GI50 belonging to NC[C@H](O)Cn1c2c(c3ccccc3c1=O)C(=O)c1ccccc1-2 [Compound 27d] and report it.
1.32

Which GI50 is listed for O=C1c2ccccc2-c2c1c1ccccc1c(=O)n2C[C@@H](O)[C@@H](O)[C@H](O)CO [Compound 17e] ?
13.2

Quick one: GI50 for O=C1c2ccccc2-c2c1c1ccccc1c(=O)n2C[C@H](O)[C@H](O)[C@H](O)CO [Compound 17b] ?
13.5

Item under review: O=C1c2ccccc2-c2c1c1ccccc1c(=O)n2C[C@H](O)[C@@H](O)[C@H](O)CO [Compound 17d] . Reported GI50?
24

Quick one: GI50 of C[C@@H](O)Cn1c2c(c3ccccc3c1=O)C(=O)c1ccccc1-2 [Compound 27a] ?
21.4

What value of GI50 has been reported for the following compound? O=C1c2ccccc2-c2c1c1ccccc1c(=O)n2C[C@H](O)[C@H](O)[C@H](O)[C@H](O)CO [Compound 17h]
13.8

---

Each entry below carries its reported GI50.
Tested on: SF-539 (CNS)
Assay: NCI Developmental Therapeutics antiproliferative assay, SF-539
Type: cell-based, human
Conditions: Homo sapiens; SF-539; 50% growth inhibition; read-out: Cytotoxicity (GI50) CNS SF-539
Kindly provide the numeric value in µM only, without the unit symbol.

| molecule | unitString | reported |
| --- | --- | --- |
| O=C1c2ccccc2-c2c1c1ccccc1c(=O)n2C[C@@H](O)CO [Compound 12b] | µM | 5.72 |
| O=C(CO)Cn1c2c(c3ccccc3c1=O)C(=O)c1ccccc1-2 | µM | 20 |
| O=C1c2ccccc2-c2c1c1ccccc1c(=O)n2CC(O)CO (racemic) [Compound 12c] | µM | 5.89 |
| O=C1c2ccccc2-c2c1c1ccccc1c(=O)n2C[C@H](O)CO [Compound 12a] | µM | 7.41 |

Which measured GI50 value corresponds to O=C1c2ccccc2-c2c1c1ccc([N+](=O)[O-])cc1c(=O)n2C[C@H](O)[C@@H](O)[C@H](O)[C@H](O)CO ?
2.61

Origin of values: patent US9682990B2
